target: human JAK1 (a.a. 837-1142) (Homo sapiens); construct: human JAK1 (a.a. 837-1142); His tag (N); made in house; host or cells: insect cells (baculovirus); experiment: In vitro JAK kinase assay (HTRF, phosphorylation of a biotinylated peptide), JAK1; assay type: biochemical; conditions: method AA1 (90 μM ATP) or AA2 (1000 μM ATP), not stated per value; read-out: JAK1 IC50
Sequence (P23458 849-1154): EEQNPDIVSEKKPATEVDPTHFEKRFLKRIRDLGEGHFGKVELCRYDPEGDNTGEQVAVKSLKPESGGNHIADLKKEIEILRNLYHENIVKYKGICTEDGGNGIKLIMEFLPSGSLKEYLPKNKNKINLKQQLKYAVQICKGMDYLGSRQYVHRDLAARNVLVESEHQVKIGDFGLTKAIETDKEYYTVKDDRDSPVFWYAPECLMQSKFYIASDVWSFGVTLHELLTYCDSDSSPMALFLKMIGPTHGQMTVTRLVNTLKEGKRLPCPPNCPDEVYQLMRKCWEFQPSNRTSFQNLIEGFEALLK
Structures can show the parent of a compound that is named as a salt.
Strictly below 8 nM in IC50: t. Otherwise: f.

Here's what some known entries look like.
O=C(CC1CCN(c2nc3ccccc3s2)CC1)Nc1ccc2cc1CCc1cncc(c1)Nc1ncc(Cl)c(n1)N2 [Example A157, tris(trifluoroacetate)]
t
CC(=O)N1CCN(CC(=O)Nc2ccc3cc2CCc2cncc(c2)Nc2ncc(Cl)c(n2)N3)CC1 [Example A127, tris(trifluoroacetate)]
f
O=C(CC1CCN(C(=O)c2ccc(F)cc2)CC1)Nc1ccc2cc1CCc1cccc(c1)Nc1ncc(Cl)c(n1)N2 [Example A203, trifluoroacetate]
f
NC(=O)COc1cc2cc(c1)Nc1nc(ncc1Cl)Nc1cccc(c1)CC2
f

Does this compound meet the criterion IC50 < 8 nM? O=C(CNC(=O)Nc1ccccc1)Nc1ccc2cc1CCc1cccc(c1)Nc1ncc(Cl)c(n1)N2 [Example A66, trifluoroacetate]
f

Strictly below 8 nM in IC50? COc1ccc2cc1Nc1nc(ncc1Cl)Nc1cccc(c1)CC2 [Example A25, trifluoroacetate]
f

Data origin, for the record: patent US8871753B2
